Please find below pIC50 measurements for Cytosolic phospholipase A2 (Homo sapiens), combined from several publications.
Give bare numbers, as −log10 of the molar value.

Example compounds with recorded pIC50:
>  <compound>
O=C1NC(=O)/C(=C/c2ccc(C=C[C@@H]3C[C@@H](OCc4ccccc4-c4ccccc4)CN3C(=O)c3ccccc3C(=O)c3ccc(F)cc3)cc2)S1

>  <pIC50>
5.96

$$$$
>  <compound>
O=C1NC(=O)/C(=C/c2ccc(C(=O)NC[C@@H]3C[C@@H](Oc4ccccc4-c4cccc5ccccc45)CN3C(=O)c3ccccc3C(=O)c3ccc(F)cc3)cc2)S1

>  <pIC50>
7.62

$$$$
>  <compound>
O=C1NC(=O)/C(=C/c2ccc(C(=O)NC[C@@H]3C[C@@H](OCc4ccc5ccccc5c4-c4ccccc4)CN3C(=O)c3ccccc3C(=O)c3ccc(F)cc3)cc2)S1

>  <pIC50>
7.60

$$$$
>  <compound>
Cc1c(Cl)cc(F)cc1S(=O)(=O)NCCc1c(CCCc2ccc(C(=O)O)cc2)c2cc(Cl)ccc2n1C(c1ccccc1)c1ccccc1

>  <pIC50>
6.49

$$$$
>  <compound>
CS[C@H]1C[C@@H](C(=O)Nc2ccc(/C=C3\SC(=O)NC3=O)cc2)N(S(=O)(=O)c2ccc(Br)cc2)C1

>  <pIC50>
5.72

$$$$
>  <compound>
C[C@@H]1CCC[C@H](C)N1CCS(=O)(=O)NCCc1c(CCOc2ccc(C(=O)O)cc2)c2cc(Cl)ccc2n1C(c1ccccc1)c1ccccc1

>  <pIC50>
6.02

$$$$
>  <compound>
Cc1cnn(CCS(=O)(=O)NCCc2c(CCOc3ccc(C(=O)O)cc3)c3cc(Cl)ccc3n2C(c2ccccc2)c2ccccc2)c1

>  <pIC50>
6.07

$$$$
>  <compound>
COc1ccccc1-c1ccccc1CO[C@@H]1C[C@@H](CNC(=O)c2ccc(/C=C3\SC(=O)NC3=O)cc2)N(C(=O)c2ccccc2C(=O)c2ccc(F)cc2)C1

>  <pIC50>
7.25

$$$$
>  <compound>
COc1cccc(-c2ccccc2C(C)C)c1O[C@@H]1C[C@@H](CNC(=O)c2ccc(/C=C3\SC(=O)NC3=O)cc2)N(C(=O)c2ccccc2C(=O)c2ccc(F)cc2)C1

>  <pIC50>
7.54

$$$$
>  <compound>
CC1CCCCN1CCS(=O)(=O)NCCc1c(CCOc2ccc(C(=O)O)cc2)c2cc(Cl)ccc2n1C(c1ccccc1)c1ccccc1 (centres unmarked)

>  <pIC50>
5.96

$$$$

Consider the following items and state reported pIC50 for each.
1. O=C(O)c1ccc(OCCc2c(CCNS(=O)(=O)c3cccc(OC(F)(F)F)c3)n(C(c3ccccc3)c3ccccc3)c3ccc(Cl)cc23)cc1
2. O=C(O)c1ccc(CCCc2c(CCNS(=O)(=O)Cc3cccc([N+](=O)[O-])c3)n(C(c3ccccc3)c3ccccc3)c3ccc(Cl)cc23)cc1
3. CC(CCl)c1ccccc1S(=O)(=O)NCCc1c(CCOc2ccc(C(=O)O)cc2)c2cc(Cl)ccc2n1C(c1ccccc1)c1ccccc1 (centres unmarked)
4. O=C1NC(=O)C(=Cc2ccc(S(=O)(=O)NC[C@@H]3C[C@H](SCc4ccccc4)CN3C(=O)c3ccccc3)cc2)S1

6.15
6.89
5.72
5.01

* * *

Please find below pIC50 measurements for Cytosolic phospholipase A2 (Homo sapiens), combined from several publications.
Give bare numbers, as −log10 of the molar value.

Example molecules with recorded pIC50:
>  <smiles-data>
O=C1NC(=O)C(=CC2CCN(C(=O)[C@@H]3C[C@@H](OCc4ccccc4-c4ccccc4)CN3C(=O)c3ccccc3C(=O)c3ccc(F)cc3)CC2)S1

>  <measured-result>
4.85

$$$$
>  <smiles-data>
O=C(O)c1ccc(OCCc2c(CCNS(=O)(=O)c3ccccc3C(F)(F)F)n(C(c3ccccc3)c3ccccc3)c3ccc(Cl)cc23)cc1

>  <measured-result>
6.46

$$$$

Continue with the molecule presented below.
// query pIC50 value for entry O=C(/C=C/c1ccc(/C=C2\SC(=O)NC2=O)cc1)NC[C@@H]1C[C@@H](N(Cc2ccccc2)C(c2ccccc2)c2ccccc2)CN1C(=O)c1ccccc1C(=O)c1ccc(F)cc1F
8.43
